- target.desc: hCA II (Homo sapiens)
- Construct: gene CA2; recombinant, obtained in-house
- protocol.notes: stopped-flow CO2 hydration
- Type: biochemical
- conditions: read-out: hCA II
outcome.measure: pKi
To interpret pKi, take it as minus log10 of a concentration measured in moles per litre.

Sample NC(=O)Oc1ccccc1 [7a, carbamate 7a] ; pKi observed: 3.96

* * *

Form field: Ki (one value per entry).
- target.desc: hCA VA (Homo sapiens)
- Construct: gene CA5A; recombinant, obtained in-house
- Sequence (P35218 39-305): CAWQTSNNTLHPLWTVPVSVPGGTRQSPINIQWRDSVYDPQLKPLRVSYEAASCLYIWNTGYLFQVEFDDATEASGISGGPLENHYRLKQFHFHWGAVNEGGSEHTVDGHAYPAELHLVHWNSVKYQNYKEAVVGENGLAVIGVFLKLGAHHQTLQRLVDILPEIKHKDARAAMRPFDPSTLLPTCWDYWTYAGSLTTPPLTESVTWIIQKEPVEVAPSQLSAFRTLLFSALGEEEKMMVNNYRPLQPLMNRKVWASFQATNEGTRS
- protocol.notes: stopped-flow CO2 hydration
- Format: biochemical
- conditions: read-out: KI (μM)^a^,^b / hCA VA
State just the number; it will be interpreted in µM.

INSERT INTO measurements (compound, target_desc, reported_measurement) VALUES
  ('NC(=O)c1ccccc1 [compound 7, carboxamide 7]', 'hCA VA (Homo sapiens)', 46.8),
  ('NS(=O)(=O)c1ccccc1 [compound 2, benzenesulphonamide]', 'hCA VA (Homo sapiens)', 1.68),
  ('CONC(=O)c1ccccc1 [compound 10, methylated hydroxamate 10]', 'hCA VA (Homo sapiens)', 89.1);

// sample O=S(=O)(NO)c1ccccc1 [compound 4, N-hydroxysulphonamide 4] , its Ki was 5.28

Ki recorded for this compound, NNS(=O)(=O)c1ccccc1 [compound 3, N-amino sulphonamide 3] , is 7.75

The recorded Ki for entry O=C(O)c1ccccc1 [compound 6, benzoic acid] equals 7.12

GET /value?item= O=C(NO)c1ccccc1 [compound 9, hydroxamic acid 9] &field=Ki returns 67.4

// recorded Ki for O=S(=O)(O)c1ccccc1 [compound 1, benzenesulphonic acid] : 80.9

Looking up NNC(=O)c1ccccc1 [compound 8, hydrazide 8] , I found its Ki recorded as 59.3

The compound listed as CONS(=O)(=O)c1ccccc1 [compound 5, N-methoxysulphonamide 5] shows Ki equal to 6.7

* * *

- target.desc: hCA IX (Homo sapiens, UniProt Q16790)
- Construct: gene CA9; recombinant, obtained in-house
- protocol.notes: stopped-flow CO2 hydration
- Format: biochemical
- conditions: CO2 1.7-17 mM, 20 mM Hepes pH 7.5, 20 mM Na2SO4, 15 min preincubation, room temperature; read-out: KI (μM)^a^,^b / hCA IX^c
outcome.measure: Ki
Include the unit after the number when you answer.

In plain terms, O=C(NO)c1ccccc1 [compound 9, hydroxamic acid 9] has a documented Ki of 45.9 µM

* * *

- target.desc: hCA IX (Homo sapiens, UniProt Q16790)
- Construct: gene CA9; recombinant, obtained in-house
- protocol.notes: stopped-flow CO2 hydration
- Type: biochemical
- conditions: read-out: KI (μM)^a^,^b / hCA VI
outcome.measure: Ki (µM)
Numbers only here, please. The scale is µM.

So, NS(=O)(=O)c1ccccc1 [compound 2, benzenesulphonamide] ? Its Ki was 0.097

* * *

- target.desc: hCA II (Homo sapiens, UniProt P00918)
- Construct: gene CA2; recombinant, obtained in-house
- protocol.notes: stopped-flow CO2 hydration
- Format: biochemical
- conditions: CO2 1.7-17 mM, 20 mM Hepes pH 7.5, 20 mM Na2SO4, 15 min preincubation, room temperature; read-out: KI (μM)^a^,^b / hCA II
outcome.measure: Ki
// unit must come after the numeric part

Measured on hCA II (Homo sapiens, UniProt P00918), O=C(NO)c1ccccc1 [compound 9, hydroxamic acid 9] has a documented Ki of 179 µM
